Reference source for all entries: ChEMBL document CHEMBL5303304

System: HEK-293T
Assay: Incucyte cell viability with HEK293T; also: unitless GR value; below 1 slowed growth and below 0 cell loss
Format: toxicity, cell-based
Conditions: human, 6 h, 10 µM, compound concentration 10 uM, replicate number 2
For each entry below, report its Growth Rate value.
Number only, no unit.

Prompt line: Consider the compound shown here: "O=c1cc(-c2cc(F)c(Cl)nc2Cl)[nH]c2c(-c3ccccc3)c(C(F)(F)F)nn12" What is its recorded Growth Rate?
Response line: 0.52

Prompt line: Same read-out for "CN(CCCCCCC1=C(c2cc(F)cc(F)c2)CCCc2cc(O)ccc21)CCCCS(=O)(=O)CCCC(F)(F)F" ?
Response line: -0.98

Prompt line: Same read-out for "CCOC(=O)c1cnn(-c2ccc(NC(=O)C(Cl)=C(Cl)Cl)cc2)c1C(F)(F)F" ?
Response line: -0.52

Prompt line: What do we get for "CCOC(=O)Nc1ccc2c(c1)N(C(=O)CN(CC)CC)c1ccccc1CC2" ?
Response line: 0.81

Prompt line: Same again, this time with "Cc1nc2c([nH]1)c(=O)n(C)c(=O)n2Cc1ccco1"
Response line: 0.63

Prompt line: // same read-out, input: CC(Oc1cc(-c2cnn(C3CCNCC3)c2)cnc1N)c1c(Cl)ccc(F)c1Cl (stereo not drawn)
Response line: -0.51

Prompt line: Also "CC[C@H](C(=O)Nc1ccccc1N1CCCC1)c1ccccc1" ?
Response line: 0.91

Prompt line: What do you have for CN(C(=O)CCOCCOCCOCCOCCNc1cccc2c1C(=O)N(C1CCC(=O)NC1=O)C2=O)[C@H]1CC[C@@]2(C)[C@@H](CC[C@@H]3[C@@H]2CC[C@]2(C)[C@@H](c4ccc5ccncc5c4)CC[C@@H]32)C1 (stereo partly drawn) ?
Response line: 1
